target: human lysosomal HexA/HexB; settings: read-out: Hex A/B, Ki
attribute_measured: Ki (nM)
Form entry: value (nM) — number only.

Record CC(=O)N[C@H]1/C(=N/OC(=O)Nc2ccccc2)O[C@H](CO)[C@@H](O)[C@@H]1O , field Ki: 25

These data points were gathered from paper PMC2691177.
